Measured EC50, listed per entry for reference.
molecular target: hMPV A1 F trimer (heated) (human metapneumovirus); test: ELISA on coated recombinant protein, OD 405 nm

{"columns": ["Binder", "EC50"],
 "data": [
  ["MPV486 (antibody, V domains shown) VH: EVQLVESGGHLVQSGGSLRLSCAASGFTFSNYILNWVRQAPGKGLEWISYITGGSSAIYYADSVKGRFTISRDDAKNSLYLQMNNLRAEDTAVYYCARSHGYDSSGYYYYFAMDVWGQGTTVTVSS VL: QSVLTQPPSASGTPGQRVTISCSGSNSNIESNTVNWYQQIPGTAPKLLIYSDNRRPSGVPDRFSGSKSGTSASLAISGLQSEDEADYYCAAWDDSLIGYVFGTGTKVTV", "0.22 µg/mL"],
  ["MPV464 (antibody, V domains shown) VH: QVQLQESGPGLVKPSQTLSLTCTVSGGSVRGGGDYWSWIRRPPGKGLEWIGHIYNSGTTFYNPSLKSRVTISIDTSKNQFSLKLRSVTAADTAVYYCGRVGSRATGLPDWIDPWGQGTLVTVSS VL: SYELTQPPSVSVSPGQTATITCSGTNLGAKYSCWYQQKPGQSPVLVIFQDNKRASGIPARFSASTSGDTATLTISGTQVMDEADYFCQAWDSRTAVFGGGTTLTVL", "0.24 µg/mL"],
  ["MPV478 (antibody, V domains shown) VH: EVQLVQSGAEVKKPGASVKVSCNASGYTFTGYYIHWVRQAPGQGLEWMGWINPRSGGTNYAQKFQGRVTLTRDTSITTAYMDVTRLRPDDTAVYYCATTREGIVLMPRGRGDDALDTWGQGTTVIVSS VL: DIVMTQSPVSLTVSLGERATINCKSSQSVLSTSNNENYLAWYQQKPGQPPNLLIYWASTRESGVPDRFSGSGSGTDFTLTISSLQAEDVAVYYCQQYFATPITFGPGTKVDVK", "0.024 µg/mL"],
  ["MPV482 (antibody, V domains shown) VH: EVQLVQSGGGVVQPGRSLRLSCAASGFTFSSFAMHWVRQAPGKGLEWVALISDDGNNKYHADSVKGRFTISRDSSKNTLYLQMNSLRGEDTAVYYCARDGSVVGAAAHCDHWGQGTLVTVSS VL: SYELTQPPSVSVSPGQTARITCSGDALPNQCAYWYQQKPGLAPVLLIYKDKERPSGIPERFSGSISGTTVTLTISGVQAEDEADYYCQSSDSSSTVVFGGGTKLTVL", "0.35 µg/mL"]
]}

The reported numbers originate from patent US20250188153A1.
